Organism: Homo sapiens
Test: Compound tested for hallucinogenic activity in humans was reported; Value reported in (A)= Mescaline units
Type: functional
Task for the reader: assign each of the following molecules its reported Activity.
Numbers only.

Example entries and their recorded answers appear below.
molecule	reported endpoint	value
COc1cc(CC(C)N)cc(OC)c1OCc1ccccc1 (stereo not drawn)	Activity	3
COc1cc(OC)c(OC)cc1CC(C)N (stereo not drawn)	Activity	10

From here, focus on the item given below.
Find the recorded Activity belonging to "COc1cc(SC(C)C)c(OC)cc1CCN" and report it. 21

---

Species on record: Homo sapiens
Test: Compound tested for hallucinogenic activity in humans was reported; Value reported in (A)= Mescaline units
Format: functional
Task for the reader: assign each of the following molecules its reported Activity.
Numbers only.

molecule	Activity
COc1cc(CC(C)N)cc(OC)c1OC (stereo not drawn)	2
CCOc1c(OC)cc(CCN)cc1SC	4
COc1cc(CCN)cc(OC)c1SC	10
CCCSc1c(OC)cc(CCN)cc1OC	16
COc1cc(CCN)c(OC)cc1I	17
COc1cc(CC(C)N)c(OC)cc1Cl (stereo not drawn)	133

Give Activity for each of the items listed below.
1. COc1cc(CC(C)N)c(OC)c(OC)c1OC (stereo not drawn)
2. CCOc1cc(CCN)cc(OC)c1OC
3. CCOc1cc(CCN)cc(SC)c1OCC
4. CCC(C)Sc1cc(OC)c(CCNO)cc1OC (stereo not drawn)

6
1
2
3

Give Activity for each of the items listed below.
1. CCSc1cc(OC)c(CC(C)N)cc1OC (stereo not drawn)
2. COc1cc(SC)c(OC)cc1CCN

1. 50
2. 4

Give Activity for each of the items listed below.
1. COc1cc(C)c(SC)cc1CC(C)N (stereo not drawn)
2. CCc1cc(OC)c(CCN)cc1OC
3. CCC(C)Sc1cc(OC)c(CCN)cc1OC (stereo not drawn)
4. COc1cc(SC(C)(C)C)c(OC)cc1CCN
5. COc1cc(CC(C)N)c(OC)c2c1OCO2 (stereo not drawn)

7
18
4
4
6

---

Task for the reader: assign each of the following molecules its reported Activity.
Species on record: Homo sapiens
Test: Compound tested for hallucinogenic activity in humans was reported; Value reported in (A)= Mescaline units
Format: functional
Numbers only.

molecule	Activity
CCOc1c(OC)cc(CCN)cc1SCC	2
COc1cc(CC(C)N)c(OC)cc1I (stereo unspecified)	133
CCC(N)Cc1ccc2c(c1)OCO2 (stereo unspecified)	1.5
COc1cc(CCN)cc(OC)c1OC	1
COc1cc(SC(C)C)c(OC)cc1CC(C)N (stereo unspecified)	32
CCOc1cc(CCN)cc(OC)c1OCC	1.3

Give Activity for each of the items listed below.
1. CCCc1cc(OC)c(CCN)cc1OC
2. COc1cc(C2CC2N)c(OC)cc1C (stereo unspecified)

1. 37
2. 17

Give Activity for each of the items listed below.
1. COc1cc(SC)c(OC)cc1CC(C)N (stereo unspecified)
2. COc1cc(CC(C)N)c(OC)c2c1CCC2 (stereo unspecified)
3. COc1cc(SCCF)c(OC)cc1CCN
4. COc1cc(CCN)c(OC)cc1Cl
5. COc1cc(C)cc(OC)c1CC(C)N (stereo unspecified)

1: 40; 2: 20; 3: 29; 4: 10; 5: 15

Give Activity for each of the items listed below.
1. COc1cc([N+](=O)[O-])c(OC)cc1CC(C)N (stereo unspecified)
2. COc1cc(CCN)c(OC)cc1C
3. COc1cc(CC(C)N)c(OC)cc1CCF (stereo unspecified)

[80, 8, 110]

---

Species on record: Homo sapiens
Assay: Compound tested for hallucinogenic activity in humans was reported; Value reported in (A)= Mescaline units
Type: functional
Task for the reader: assign each of the following compounds its reported Activity.
One number for each entry.

compound	Activity
CC(N)Cc1ccc2c(c1)OCO2 (stereo not given)	3
CCOc1cc(CCN)cc(OC)c1SC	4
COc1cc(CC(C)N)c(OC)c(OC)c1 (stereo not given)	4
COc1cc(OC)c(CC(C)N)c(OC)c1 (stereo not given)	10
CCNC(C)Cc1ccc2c(c1)OCO2 (stereo not given)	2
COc1cc(SCC2CC2)c(OC)cc1CCN	7

Give Activity for each of the items listed below.
1. COc1cc(CCN)c(OC)c2c1CCC2
2. COc1cc(CC(C)N)cc2c1OCO2 (stereo not given)
3. CCCOc1c(OC)cc(CCN)cc1OC
4. COc1cc(CCN)cc(OC)c1C

1: 14; 2: 2; 3: 7; 4: 4
